Test system: Cryptococcus neoformans
Experiment: Antimicrobial activity against Cryptococcus neoformans by macro dilution test
Assay type: functional
QUANTITY_KIND: MIC (µg/mL)
Give bare numbers, in µg/mL.

Ask | MIC for CCCCCC[C@@H](O)C/C=C\CCCCCCCC(=O)Oc1ccc2ccc(=O)oc2c1 ?
Reply | 16

Ask | Name the recorded MIC for OC(Cn1cncn1)(Cn1cncn1)c1ccc(F)cc1F [FLUCONAZOLE] .
Reply | 8

Ask | What value of MIC has been reported for the following compound? CCCCCCCC/C=C\CCCCCCCC(=O)Oc1ccc2ccc(=O)oc2c1
Reply | 32

State the recorded MIC for every item in the following list.
1. CCCCC/C=C\CC[C@H](O)CCCCCCCC(=O)Oc1ccc2ccc(=O)oc2c1
2. C=CCCCCCCCCC(=O)Oc1ccc2ccc(=O)oc2c1

Reply |
1. 8
2. 16

---

Assignment: determine reported MIC for the given compounds.
System: Escherichia coli
Assay: Antimicrobial activity against Escherichia coli by macro dilution test
Type: functional
Give bare numbers, in mg/L.

Ask | GET /values?readout=MIC&item= CCCCC/C=C\CC[C@H](O)CCCCCCCC(=O)Oc1ccc2ccc(=O)oc2c1
Reply | 32

Ask | Recorded MIC for C=CCCCCCCCCC(=O)Oc1ccc2ccc(=O)oc2c1 , please?
Reply | 128

Your task in this section: give MIC for each listed record.
1. O=C(N[C@H](CO)[C@H](O)c1ccc([N+](=O)[O-])cc1)C(Cl)Cl
2. CCCCCC[C@@H](O)C/C=C\CCCCCCCC(=O)Oc1ccc2ccc(=O)oc2c1
3. CCCCCCCC/C=C\CCCCCCCC(=O)Oc1ccc2ccc(=O)oc2c1

Reply |
1: 32; 2: 64; 3: 128

---

Tested on: Salmonella typhimurium
Assay: Antimicrobial activity against Salmonella enterica subsp. enterica serovar Typhimurium by macro dilution test
Type: functional
QUANTITY_KIND: MIC (µg/mL)
One number for each entry, in µg/mL.

Here is how some compounds turned out for MIC.
Ask | Returns the measured MIC for the input compound. Input: O=C(N[C@H](CO)[C@H](O)c1ccc([N+](=O)[O-])cc1)C(Cl)Cl
Reply | 32

Ask | Looking for the measured MIC of CCCCCC[C@@H](O)C/C=C\CCCCCCCC(=O)Oc1ccc2ccc(=O)oc2c1 , can you help?
Reply | 64

Ask | Find the recorded MIC belonging to C=CCCCCCCCCC(=O)Oc1ccc2ccc(=O)oc2c1 and report it.
Reply | 64

Ask | Which MIC is listed for CCCCC/C=C\CC[C@H](O)CCCCCCCC(=O)Oc1ccc2ccc(=O)oc2c1 ?
Reply | 64

---
Ask | Query (compound): CCCCCCCC/C=C\CCCCCCCC(=O)Oc1ccc2ccc(=O)oc2c1 ; field requested: MIC
Reply | 128
